PARAMETER: ΔTm (°C)
All answers are understood in °C, so give the number only.

// compound `O=C1Nc2ccccc2/C1=C\c1ccc[nH]1` , assay Cyclin-dependent kinase-like 1 (Homo sapiens) (UniProt Q00532), ΔTm value: 1.4

Item `CCCNC(=O)Nc1ccc(Oc2ncnc3cc(OC)c(OC)cc23)cc1Cl` was tested on Cyclin-dependent kinase-like 1 (Homo sapiens) (UniProt Q00532); the reported ΔTm is 0.8

Record `CN(C)S(=O)(=O)c1ccc2c(c1)/C(=C/c1cc3c([nH]1)CCCC3)C(=O)N2` / Cyclin-dependent kinase-like 1 (Homo sapiens) (UniProt Q00532), ΔTm recorded as 0

---

Assign ΔTm to each entry below.

Query `O=C(Nc1cccc(Nc2cc(Nc3cccc(C(F)(F)F)c3)ncn2)c1)C1CC1` on Calcium/calmodulin-dependent protein kinase kinase 2 (Homo sapiens); ΔTm returned: 1.7 °C

Reported Calcium/calmodulin-dependent protein kinase kinase 2 (Homo sapiens) ΔTm for item `Cn1cnc2c(NCc3ccccc3)nc(NCCO)nc21` was -0.2 °C

Readout ΔTm for `CC(C)(C)c1cc(C=C2C(=O)C=CC2=O)cc(C(C)(C)C)c1O` , test system Calcium/calmodulin-dependent protein kinase kinase 2 (Homo sapiens), was -0.8 °C

Fill in: Calcium/calmodulin-dependent protein kinase kinase 2 (Homo sapiens) ΔTm for `Cc1cc(Nc2nc(-c3ccccc3)nc3ccccc23)n[nH]1` = 2 °C

Bench note, Calcium/calmodulin-dependent protein kinase kinase 2 (Homo sapiens): entry `Cc1c2ccncc2c(C)c2c1[nH]c1ccccc12` , its ΔTm = 1.3 °C

Item `CC(C)(C)n1nc(-c2ccc(Cl)cc2)c2c(N)ncnc21` ; assay system Calcium/calmodulin-dependent protein kinase kinase 2 (Homo sapiens); ΔTm reported as 1 °C

Reported ΔTm (Calcium/calmodulin-dependent protein kinase kinase 2 (Homo sapiens)) for entry CSc1nc(-c2ccc(F)cc2)c(-c2ccnc(NC(C)c3ccccc3)c2)[nH]1 (racemic) is 0.7 °C

Form field, ΔTm with Calcium/calmodulin-dependent protein kinase kinase 2 (Homo sapiens), item `COc1ccc(CNC(=O)Nc2ncc([N+](=O)[O-])s2)cc1` : 0 °C

Reading of ΔTm for `Ic1cccc(CSc2nnc(-c3ccncc3)o2)c1` with Calcium/calmodulin-dependent protein kinase kinase 2 (Homo sapiens): -0.6 °C

With Calcium/calmodulin-dependent protein kinase kinase 2 (Homo sapiens) as the test system, `CC(C)c1cc(/C=C(\C#N)C(=O)NCCCc2ccccc2)cc(C(C)C)c1O` showed ΔTm of 1 °C

Lab note: compound `NCCNS(=O)(=O)c1cccc2c(Cl)cccc12` tested on Calcium/calmodulin-dependent protein kinase kinase 2 (Homo sapiens); recorded ΔTm was 0.3 °C

Observed ΔTm on Calcium/calmodulin-dependent protein kinase kinase 2 (Homo sapiens), entry `Clc1ccc(Nc2nnc(Cc3ccncc3)c3ccccc23)cc1` , equals 0.5 °C

GET /values?item= `O=C1c2ccccc2-c2n[nH]c3cccc1c23` &system= Calcium/calmodulin-dependent protein kinase kinase 2 (Homo sapiens) returns ΔTm: 2.4 °C

Fill in: Calcium/calmodulin-dependent protein kinase kinase 2 (Homo sapiens) ΔTm for `O=C1Nc2ccccc2/C1=C/c1cnc[nH]1` = 3.1 °C

Tested on Calcium/calmodulin-dependent protein kinase kinase 2 (Homo sapiens), the item Cl.Cn1cc(C2=C(c3ccc4cc5n(c4c3)CCC(CN)C5)C(=O)NC2=O)c2ccccc21 (centres undefined) showed ΔTm equal to -1.3 °C

Field ΔTm (Calcium/calmodulin-dependent protein kinase kinase 2 (Homo sapiens)), entry `O=C1C(Cl)=C(N2C(=O)CCC2=O)C(=O)c2ccccc21` : -2.5 °C

The compound `COc1cc2ncnc(Nc3ccc(NC(=O)c4ccccc4)cc3)c2cc1OC` , when measured on Calcium/calmodulin-dependent protein kinase kinase 2 (Homo sapiens), yielded ΔTm of 1.3 °C

The compound O=C1c2ccccc2-[n+]2ccc3c([nH]c4ccccc43)c21 [FASCAPLYSIN CHLORIDE] , tested on Calcium/calmodulin-dependent protein kinase kinase 2 (Homo sapiens), showed ΔTm of -2.1 °C

Lab note: compound `O=C1Nc2ccc(I)cc2/C1=C1/Nc2ccccc2/C1=N\O` tested on Calcium/calmodulin-dependent protein kinase kinase 2 (Homo sapiens); recorded ΔTm was 6.9 °C

---

For each record, write down the corresponding ΔTm.
ASSAYED_SYSTEM: Lymphokine-activated killer T-cell-originated protein kinase (Homo sapiens)
Respond numerically; units are °C and should not be typed.

For reference, reported ΔTm for `COc1cc2c(cc1OC)-c1n[nH]c(Nc3cccc(F)c3)c1C2` stands at 0.2

Entry CSc1nc(-c2ccc(F)cc2)c(-c2ccnc(NC(C)c3ccccc3)c2)[nH]1 (racemic) — recorded ΔTm = 0.4

Reported ΔTm ( `c1ccc(-c2n[nH]c3c2oc2ccccc23)cc1` ) = -0.2

Recorded result, `O=C1Nc2ccc(I)cc2/C1=C\c1cc(Br)c(O)c(Br)c1` , ΔTm: 0.9

get_value(item= CCN(CC)CCNC(=O)c1c(C)[nH]c(/C=C2\C(=O)Nc3ccc(Cl)cc32)c1C [SU-11652] , readout=ΔTm) returns -0.4

The compound `Cc1nc2sccn2c(=O)c1CCN1CCC(=C(c2ccccc2)c2ccc(F)cc2)CC1` showed ΔTm equal to -0.5

ΔTm measured on Oc1cc(O)cc(/C=C/c2ccc(O)c(O)c2)c1 [PICEATANNOL] = 0

Note to self: ΔTm recorded for `O=S(=O)(NCCNC/C=C/c1ccc(Br)cc1)c1cccc2cnccc12` was 0.6

Briefly, ΔTm measured for `Cc1cc(Nc2nc(-c3ccccc3)nc3ccccc23)n[nH]1` : 0.9

The compound listed as CN(C)CC1CCn2c(c(C3=C(c4c[nH]c5ccccc45)C(=O)NC3=O)c3ccccc32)C1 (stereo not given) shows ΔTm equal to -0.8

The compound listed as COc1cc(/C=C/C(=O)CC(=O)/C=C/c2ccc(O)c(OC)c2)ccc1O [CURCUMIN] shows ΔTm equal to 0.7

Query `N#C/C(=C\c1ccc(O)c(O)c1)C(=O)Nc1ccccc1` yields ΔTm of 0.5

Reported ΔTm ( COc1ccc2c(c1)/C(=C/c1cnc[nH]1)C(=O)N2 [SU-9516] ) = 0

Memo: CCOc1ccc(/C=C2/SC(=O)N(CCN)C2=O)cc1 [HIAZOLIDINEDIONE1] , reported ΔTm: 0.2

compound O=C1Cc2c([nH]c3ccc(Br)cc23)-c2ccccc2N1 [KENPAULLONE] , ΔTm observed: -2

---

Assignment: determine reported ΔTm for the given molecules.
Reply with the number and its unit after it.

Tested on Mitogen-activated protein kinase kinase kinase 5 (Homo sapiens), the item `O=S(=O)(c1cccc2c(Cl)cccc12)N1CCCNCC1` showed ΔTm equal to 0.6 °C

Param item: `O=C1NC(=O)C(c2cn(CCCn3ccnc3)c3ccccc23)=C1Nc1ccccc1` ; param system: Mitogen-activated protein kinase kinase kinase 5 (Homo sapiens); output ΔTm: 0.6 °C

Field ΔTm (system: Mitogen-activated protein kinase kinase kinase 5 (Homo sapiens)) for entry `CC(C)(C)c1cc(C=C2C(=O)C=CC2=O)cc(C(C)(C)C)c1O` = 0.1 °C

Entry `O=C(O)/C=C/c1cc(CO)ccc1CO` , tested on Mitogen-activated protein kinase kinase kinase 5 (Homo sapiens), has a reported ΔTm of 1.2 °C

The reported ΔTm value, Mitogen-activated protein kinase kinase kinase 5 (Homo sapiens), for `N#CC(C#N)=Cc1ccc(O)c(O)c1` reads 0.1 °C

The molecule `O=C(Nc1cccc(Nc2nccc(Nc3cccc(C(F)(F)F)c3)n2)c1)C1CC1` on Mitogen-activated protein kinase kinase kinase 5 (Homo sapiens): ΔTm was 0.2 °C

Observed ΔTm on Mitogen-activated protein kinase kinase kinase 5 (Homo sapiens), entry `Cc1ccc(NC(=O)c2ccc(CN3CCN(C)CC3)cc2)cc1Nc1nccc(-c2cccnc2)n1` , equals 0 °C

Item `CN(C)S(=O)(=O)c1ccc2c(c1)/C(=C/c1cc3c([nH]1)CCCC3)C(=O)N2` was tested on Mitogen-activated protein kinase kinase kinase 5 (Homo sapiens); the reported ΔTm is 1.2 °C

Bench note, Mitogen-activated protein kinase kinase kinase 5 (Homo sapiens): entry `COc1cc2ncnc(Nc3ccc(NC(=O)c4ccccc4)cc3)c2cc1OC` , its ΔTm = 0.1 °C

Tested system Mitogen-activated protein kinase kinase kinase 5 (Homo sapiens); ΔTm recorded for `O=c1c(-c2ccc(O)cc2)coc2cc(O)cc(O)c12` was 0.6 °C

For `Cc1cc(C=C2C(=O)C=CC2=O)cc(C)c1O` on Mitogen-activated protein kinase kinase kinase 5 (Homo sapiens), measured ΔTm was 2.6 °C

Mitogen-activated protein kinase kinase kinase 5 (Homo sapiens) data for `O=C(Nc1cccc(Nc2cc(Nc3cccc(C(F)(F)F)c3)ncn2)c1)C1CC1` ; its ΔTm: 0.9 °C

Noted ΔTm for `CC[C@H](CO)Nc1nc(NCc2ccccc2)c2ncn(C(C)C)c2n1` , tested on Mitogen-activated protein kinase kinase kinase 5 (Homo sapiens): 1 °C

Mitogen-activated protein kinase kinase kinase 5 (Homo sapiens) data for `N#C/C(=C(/N)Sc1ccc(N)cc1)c1ccccc1C(F)(F)F` ; its ΔTm: -0.1 °C

---

ASSAYED_SYSTEM: Calcium/calmodulin-dependent protein kinase type II subunit beta (Homo sapiens)
Rule: ΔTm under 0.1 °C gives F, otherwise T.

In plain terms: is recorded ΔTm at least 0.1 °C for `O=Nc1c(-c2c(O)[nH]c3ccccc23)[nH]c2ccccc12` ? T

Would you say `CC(C)(C)n1nc(-c2ccc(Cl)cc2)c2c(N)ncnc21` shows ΔTm at minimum 0.1 °C? T

Kindly determine if ΔTm recorded for `O=C1Nc2ccc(I)cc2/C1=C\c1cc(Br)c(O)c(Br)c1` is above or exactly 0.1 °C. F

Threshold query (ΔTm >= 0.1 °C) on `O=C(Nc1cccc(Nc2cc(Nc3cccc(C(F)(F)F)c3)ncn2)c1)C1CC1` T

Given the entry `CC(C)n1cnc2c(NCc3ccccc3O)nc(NCCCO)nc21` , answer whether its ΔTm meets or surpasses 0.1 °C. T

Entry NC1=NC(=O)/C(=C2\CCNC(=O)c3[nH]c(Br)cc32)N1 [HYMENIALDISINE] : is its ΔTm no less than 0.1 °C? T

I'd appreciate it if you could say whether `Cc1cc(C=C2C(=O)C=CC2=O)cc(C)c1O` has ΔTm at least equal to 0.1 °C. F

// inclusive: ΔTm at least 0.1 °C? input: `Cc1nc2sccn2c(=O)c1CCN1CCC(=C(c2ccccc2)c2ccc(F)cc2)CC1` T

# bool: ΔTm of `CC(C)c1cc(/C=C(\C#N)C(=O)NCCCc2ccccc2)cc(C(C)C)c1O` >= 0.1 °C T

Is ΔTm at least 0.1 °C? Consider C[S+]([O-])c1ccc(-c2nc(-c3ccc(F)cc3)c(-c3ccncc3)[nH]2)cc1 (centres undefined) [SB-203580] F

Tell me whether ΔTm is at least 0.1 °C here: CC(C)[C@H](CO)Nc1nc(Nc2cc(N)cc(Cl)c2)c2ncn(C(C)C)c2n1 [AMINOPURVALANOL] T

Evaluate Cc1c2ccncc2c(C)c2c1[nH]c1ccccc12 [ELLIPTECINE] : ΔTm at minimum 0.1 °C? T

Dear colleague, could you confirm whether `O=C1C(Cl)=C(N2C(=O)CCC2=O)C(=O)c2ccccc21` has ΔTm at or above 0.1 °C? F

I'd appreciate it if you could say whether `O=C1NC(=O)c2c1c1c3ccccc3n3c1c1c2c2ccccc2n1C1CCC3O1` has ΔTm at least equal to 0.1 °C. T

# check: ΔTm of `N#C/C(=C(/N)Sc1ccc(N)cc1)c1ccccc1C(F)(F)F` is greater than or equal to 0.1 °C T

Exam item: decide whether the reported ΔTm for `COc1ccc(CNC(=O)Nc2ncc([N+](=O)[O-])s2)cc1` is at least 0.1 °C. F

API: above_or_equal(metric=ΔTm, cutoff=0.1 °C) for item O=C1Cc2c([nH]c3ccc(Br)cc23)-c2ccccc2N1 [KENPAULLONE] T

Check if ΔTm >= 0.1 °C (inclusive). Item: CSc1nc(-c2ccc(F)cc2)c(-c2ccnc(NC(C)c3ccccc3)c2)[nH]1 (racemic) F

Does the reported ΔTm for `O=S(=O)(NCCNC/C=C/c1ccc(Br)cc1)c1cccc2cnccc12` fall at or above the 0.1 °C mark? F

Could you please find out whether `O=C(O)/C=C/c1cc(CO)ccc1CO` has ΔTm that meets 0.1 °C or exceeds it? T

From: ChEMBL document CHEMBL1145498
